Cited source for all entries: patent US11931424B2

Test system: panel of breast cancer cell lines
Experiment: Compound A with targeted agents and chemotherapies, 72-hour in vitro proliferation assays
Format: cell-based
Settings: CAL-51 cell line; compound A × partner; 72-hour proliferation
Structures can show the parent of a compound that is named as a salt.
Please provide measured Best CI for the entries that follow.

Best CI lookup needed for CC1(C)CCC(CN2CCN(c3ccc(C(=O)NS(=O)(=O)c4ccc(NCC5CCOCC5)c([N+](=O)[O-])c4)c(Oc4cnc5[nH]ccc5c4)c3)CC2)=C(c2ccc(Cl)cc2)C1 , thanks.
0.58

# get_value(readout='Best CI', item= CCOc1cc2ncc(C#N)c(Nc3ccc(OCc4ccccn4)c(Cl)c3)c2cc1NC(=O)/C=C/CN(C)C )
0.29

Please give the measured Best CI for this compound: Cc1c(-c2ccc(N3CCc4cccc(C(=O)Nc5nc6ccccc6s5)c4C3)nc2C(=O)O)cnn1CC12CC3CC(CC(C3)C1)C2
0.01

Which Best CI reading was recorded for the compound CC(=O)c1c(C)c2cnc(Nc3ccc(N4CCNCC4)cn3)nc2n(C2CCCC2)c1=O ?
0.82

Field request: Best CI | item: CC/C(=C(\c1ccccc1)c1ccc(OCCN(C)C)cc1)c1ccccc1 [Tamoxifen Citrate]
1.06

Entry Cn1ncnc1[C@H]1c2n[nH]c(=O)c3cc(F)cc(c23)N[C@@H]1c1ccc(F)cc1 has what Best CI?
0.26

Sample N.N.[Cl][Pt][Cl] [Cisplatin] — what was its Best CI?
0.48

Which Best CI value belongs to CC(=O)O[C@H]1C(=O)[C@@]2(C)[C@H]([C@H](OC(=O)c3ccccc3)[C@]3(O)C[C@H](OC(=O)[C@H](O)[C@@H](NC(=O)c4ccccc4)c4ccccc4)C(C)=C1C3(C)C)[C@]1(OC(C)=O)CO[C@@H]1C[C@@H]2O [Paclitaxel, reference compound] ?
0.50

Field request: Best CI | item: Nc1ccn([C@@H]2O[C@H](CO)[C@@H](O)C2(F)F)c(=O)n1 [Gemcitabine Hydrochloride]
0.47

Find the recorded Best CI belonging to N.N.O=C([O-])C1(C(=O)[O-])CCC1.[Pt+2] and report it.
0.89

Which Best CI value is on record for CC(C)NC[C@@H](C(=O)N1CCN(c2ncnc3c2[C@H](C)C[C@H]3O)CC1)c1ccc(Cl)cc1 ?
0.66

Could you tell me which Best CI is on file for CC1(C)CCC(c2ccc(Cl)cc2)=C(CN2CCN(c3ccc(C(=O)NS(=O)(=O)c4ccc(N[C@H](CCN5CCOCC5)CSc5ccccc5)c(S(=O)(=O)C(F)(F)F)c4)cc3)CC2)C1 ?
0.09

Consider the compound shown here: CCN1CCN(Cc2ccc(Nc3ncc(F)c(-c4cc(F)c5nc(C)n(C(C)C)c5c4)n3)nc2)CC1 What is its recorded Best CI?
1.31

Best CI for CN(C)C(=O)c1cc2cnc(Nc3ccc(N4CCNCC4)cn3)nc2n1C1CCCC1 ?
0.77

What does the data say about its Best CI? Entry: CS(=O)(=O)CCNCc1ccc(-c2ccc3ncnc(Nc4ccc(OCc5cccc(F)c5)c(Cl)c4)c3c2)o1 [Lapatinib Ditosylate]
1.14

// Best CI lookup, key: O=C(c1cc(Cc2n[nH]c(=O)c3ccccc23)ccc1F)N1CCN(C(=O)C2CC2)CC1
0.55
